- System: LYN
- recorded_conditions: concentration: 1 μM, replicates: in singlicate; n = 1;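 note: KINOMEscan kinase panel screen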
readout_name: %Inh (%)
Provide only the numeric value, understood in %.

molecule	readout_unit	%Inh
COc1cccc(C2=C(N(C)c3ccccc3)C(=O)NC2=O)c1	%	0
CC(C)(C)c1ccc(C(=O)Nc2cn3cc(-c4ccccc4)ccc3n2)cc1	%	0
CCS(=O)c1ccc(-c2coc3ccc(-c4nnc(C)o4)cc23)cc1 (stereo not shown)	%	0

The molecule listed as "CCn1c(-c2ccoc2)nc2cnccc21" shows %Inh equal to 4

// %Inh lookup, molecule = "Nc1n[nH]c2ncc(-c3ccccc3)cc12" , result: 0

The value of %Inh measured for the molecule "COC(=O)c1c(-c2ccccc2)c2cc(Br)ccc2c(=O)n1Cc1ccc(S(C)(=O)=O)cc1" turned out to be 14

In plain terms, "O=c1cc(N2CCOCC2)nc2n(Cc3ccc(F)c(Cl)c3)ccn12" has a documented %Inh of 2

The recorded %Inh for "CN(C)c1cc(-c2ccc3c(N)n[nH]c3c2)nc(N)n1" is 0

So for "OCCCNc1nccc(-c2c(-c3cccc(C(F)(F)F)c3)nn3cc(C(F)(F)F)ccc23)n1" , the logged %Inh turned out to be 0

# %Inh of "CCc1nc(-c2cccc(C)c2)c(-c2ccncc2)s1" = 12

Documented %Inh of "CCCNC(=O)Nc1ccc(Oc2ncnc3ccn(C)c23)cc1" : 30

Quick note, %Inh for "COc1cc(OC)cc(-c2cc3cnc(N)nc3nc2NC(=O)NC(C)(C)C)c1" landed at 0

====

- Test system: CAMK2D
- recorded_conditions: concentration: 1 μM, replicates: in singlicate; n = 1
We begin with a simple list: items and their reported %Inh.
State the answer as a number, implicitly in %.

Examples with answers:
smiles_code	assayed_system	readout_unit	meas_value
CCC(=O)c1c(-c2ccccc2)c2cc(Cl)ccc2c(=O)n1Cc1cc(S(C)(=O)=O)n(CC(N)=O)n1	CAMK2D	%	0
CN1C(=O)C(Nc2cc(Cl)c(O)c(Cl)c2)=C(c2ccc(Cl)cc2)C1=O	CAMK2D	%	0
Cc1nn2c(=O)cc(N3CCOCC3)nc2n1Cc1cccc(Cl)c1Cl	CAMK2D	%	1
CCC(=O)c1c(-c2ccccc2)c2cc(Cl)ccc2c(=O)n1Cc1cc(S(C)(=O)=O)n(CCC(C)(C)O)n1	CAMK2D	%	24
COc1ccc(-c2cc3c(C)nc(N)nc3n([C@H]3CC[C@H](OCCO)CC3)c2=O)cn1	CAMK2D	%	0

For the next question, use this compound.
Looking up "Cc1cc(Nc2nc(-c3cccc(C)n3)nc3ccccc23)ccn1" , I found its %Inh recorded as 0

====

- Test system: PRKD1
- recorded_conditions: concentration: 1 μM, replicates: in singlicate; n = 1
readout_name: %Inh (%)
Use % as the unit, but write only the number.

# count of solved cases: 5
compound	assayed_system	%Inh [%]
COc1cc(OC)cc(-c2cc3cnc(N)nc3nc2NC(=O)NC(C)(C)C)c1	PRKD1	0
COc1cc(Nc2nccc(N3CCC(NC(=O)C4COc5ccccc5O4)C3)n2)cc(OC)c1OC (stereo not drawn)	PRKD1	0
Nc1nc(N)c2nc(-c3ccccc3)[nH]c2n1	PRKD1	40
Cc1nn2c(=O)cc(N3CCOCC3)nc2n1Cc1cccc(Cl)c1Cl	PRKD1	20
COc1ccc(Nc2nccc(N3CCC(NS(=O)(=O)c4ccc(NC(C)=O)cc4)C3)n2)cc1 (stereo not drawn)	PRKD1	25

// sample "O=C1NC(=O)C(c2ccccc2)=C1Nc1cccc(O)c1" , its %Inh was 0

The measured %Inh associated with "Cc1nnc(-c2ccc(C)c(-c3ccc(C(=O)O)cc3)c2)o1" reads 0

// sample "Cc1ccccc1COc1cc(-n2cnc3cc(Cl)ccc32)sc1C(N)=O" , its %Inh was 7

The compound listed as "CCC(=O)c1c(-c2ccccc2)c2cc(Cl)ccc2c(=O)n1Cc1ccc(C(=O)O)cc1" shows %Inh equal to 0
